- TEST_SUMMARY: microPET/CT imaging, ROI analysis, Panc-02 tumor models
- Format: in vivo, mice
- CONDITION_NOTES: C57BL/6, mouse, intravenous, 3 MBq, 1 h after tracer injection
MEASURED_PROPERTY: tissue uptake at 1 h (%ID/g)
Reply numerically in %ID/g, unit not repeated.

Task: So what's the measured tissue uptake at 1 h for this one? CCCCCC(=O)N[C@H]1CSCc2cc(CSCCNC(=O)[C@H](CCCCN)NC(=O)[C@@H](NC(=O)[C@H](CCSC)NC(=O)CN3CCN(CC(=O)O)CCN(CC(=O)O)CCN(CC(=O)O)CC3)C(C)C)cc(c2)CSC[C@@H](C(=O)O)NC(=O)[C@H](Cc2ccccc2)NC(=O)[C@H](CCC(N)=O)NC(=O)[C@H]([C@@H](C)O)NC(=O)[C@@H]2CCCN2C(=O)[C@@H]2CCCN2C1=O [[^68Ga]Ga-DOTA-FD1, metal not drawn]
Output: 0.92

====

- TEST_SUMMARY: microPET/CT imaging, ROI analysis, HT1080-FAP tumor models
- Assay type: in vivo, mice
- CONDITION_NOTES: nude (thymus-free), mouse, intravenous, 3 MBq; HT1080-FAP tumor, without blocking; read-out: tumor uptake (ROI analysis)
MEASURED_PROPERTY: tissue uptake (%ID/g)
Respond numerically; units are %ID/g and should not be typed.

Task: Given CCCCCC(=O)N[C@H]1CSCc2cc(CSCCNC(=O)[C@H](CCCCN)NC(=O)[C@@H](NC(=O)[C@H](CCSC)NC(=O)CN3CCN(CC(=O)O)CCN(CC(=O)O)CCN(CC(=O)O)CC3)C(C)C)cc(c2)CSC[C@@H](C(=O)O)NC(=O)[C@H](Cc2ccccc2)NC(=O)[C@H](CCC(N)=O)NC(=O)[C@H]([C@@H](C)O)NC(=O)[C@@H]2CCCN2C(=O)[C@@H]2CCCN2C1=O [[^68Ga]Ga-DOTA-FD1, metal not drawn] , state its recorded tissue uptake.
Output: 8.85

====

- TEST_SUMMARY: Ex vivo biodistribution after imaging, HT1080-FAP tumor models
- Type: in vivo, mice
- CONDITION_NOTES: nude (thymus-free), mouse, intravenous, 3 MBq, total radioactivity; HT1080-FAP tumor, without blocking; read-out: tumor uptake (biodistribution study)
MEASURED_PROPERTY: tissue uptake (%ID/g)
Field: numeric (%ID/g). Do not append units.

Task: Entry under review: CCCCCC(=O)N[C@H]1CSCc2cc(CSCCNC(=O)[C@H](CCCCN)NC(=O)[C@@H](NC(=O)[C@H](CCSC)NC(=O)CN3CCN(CC(=O)O)CCN(CC(=O)O)CCN(CC(=O)O)CC3)C(C)C)cc(c2)CSC[C@@H](C(=O)O)NC(=O)[C@H](Cc2ccccc2)NC(=O)[C@H](CCC(N)=O)NC(=O)[C@H]([C@@H](C)O)NC(=O)[C@@H]2CCCN2C(=O)[C@@H]2CCCN2C1=O [[^68Ga]Ga-DOTA-FD1, metal not drawn] . Reported tissue uptake?
Output: 19.2

====

- TEST_SUMMARY: Ex vivo biodistribution after imaging, HT-1080 tumor models
- Format: in vivo, mice
- CONDITION_NOTES: nude (thymus-free), mouse, intravenous, 3 MBq, total radioactivity, after imaging at 30 min p.i., read-out: tumor uptake (biodistribution study)
MEASURED_PROPERTY: tissue uptake at 0.5 h
Output should be the measured figure followed by the unit it is expressed in.

Task: // returns reported tissue uptake at 0.5 h for input CCCCCC(=O)N[C@H]1CSCc2cc(CSCCNC(=O)[C@H](CCCCN)NC(=O)[C@@H](NC(=O)[C@H](CCSC)NC(=O)CN3CCN(CC(=O)O)CCN(CC(=O)O)CCN(CC(=O)O)CC3)C(C)C)cc(c2)CSC[C@@H](C(=O)O)NC(=O)[C@H](Cc2ccccc2)NC(=O)[C@H](CCC(N)=O)NC(=O)[C@H]([C@@H](C)O)NC(=O)[C@@H]2CCCN2C(=O)[C@@H]2CCCN2C1=O [[^68Ga]Ga-DOTA-FD1, metal not drawn]
Output: 1.02 %ID/g

Entry source: paper PMC11066877
